Assay: Half life in Sprague-Dawley rat at 2 mg/kg, iv by LC-MS analysis
Format: ADME, organism-based
Settings: in vivo
endpoint name: half-life (h)
Give bare numbers, in h.

Lab note: measured half-life of Fc1ccc([Se]C(Cn2ccnc2)c2ccc(F)cc2F)cc1 (stereo unspecified) was 1.89

----------
System: Candida albicans
Assay: Anti-biofilm activity in Candida albicans CPCC400616 assessed as inhibition of biofilm formation incubated for 24 hrs with 6 hrs precultured fungal suspension by XTT assay
Type: functional
For each of the compounds below, state its MIC50.
Give bare numbers, in µg/mL.

[[record]]
compound = "Fc1cccc([Se]C(Cn2ccnc2)c2ccc(Cl)cc2Cl)c1 (centres undefined)"
readout_number = 128


Turning now to a further compound:
Lab note: measured MIC50 of Fc1ccc([Se]C(Cn2ccnc2)c2ccc(F)cc2F)cc1 (centres undefined) was 64

----------
For each of the molecules below, state its hemolysis at 3 h, 1 ug/ml.
Assay: Hemolytic activity in rabbit RBC assessed as hemolysis ratio at 1 ug/ml measured after 3 hrs by microplate reader assay relative to control
Format: ADME, cell-based, Oryctolagus cuniculus, Erythrocyte
Conditions: rabbit red blood cells (erythrocytes), at 1 µg/mL, read-out: Activity
One number for each entry, in %.

# annotated cases, reported hemolysis at 3 h, 1 ug/ml shown
[[record]]
molecule = "Fc1cccc([Se]C(Cn2ccnc2)c2ccc(Cl)cc2Cl)c1 (stereo unspecified)"
endpoint_name = "hemolysis at 3 h, 1 ug/ml"
readout_number = 0

[[record]]
molecule = "Fc1ccc([Se]C(Cn2ccnc2)c2ccc(F)cc2F)cc1 (stereo unspecified)"
endpoint_name = "hemolysis at 3 h, 1 ug/ml"
readout_number = 0

[[record]]
molecule = "Clc1ccc(COC(Cn2ccnc2)c2ccc(Cl)cc2Cl)c(Cl)c1 (stereo unspecified)"
endpoint_name = "hemolysis at 3 h, 1 ug/ml"
readout_number = 0.16

[[record]]
molecule = "Clc1ccc(C(Cn2ccnc2)[Se]Cc2ccccc2Cl)c(Cl)c1 (stereo unspecified)"
endpoint_name = "hemolysis at 3 h, 1 ug/ml"
readout_number = 0

[[record]]
molecule = "CCc1ccccc1[Se]C(Cn1ccnc1)c1ccc(F)cc1F (stereo unspecified)"
endpoint_name = "hemolysis at 3 h, 1 ug/ml"
readout_number = 0


Turning now to a further molecule:
Lab note: measured hemolysis at 3 h, 1 ug/ml of Cc1ccc(C)c([Se]C(Cn2ccnc2)c2ccc(Cl)cc2Cl)c1 (stereo unspecified) was 0

----------
Assay: AUC (0 to t) in Sprague-Dawley rat at 2 mg/kg, iv by LC-MS analysis
Assay type: ADME, organism-based
Design: dose 2 mg/kg
Details: in vivo
endpoint name: AUC(0-t) (ng·h/mL)
Give bare numbers, in ng·h/mL.

Lab note: measured AUC(0-t) of Fc1ccc([Se]C(Cn2ccnc2)c2ccc(F)cc2F)cc1 (stereo unspecified) was 2250

----------
Test system: Candida albicans
Experiment: Anti-biofilm activity in Candida albicans CPCC400616 assessed as inhibition of biofilm formation incubated for 24 hrs with 3 hrs precultured fungal suspension by XTT assay
Format: functional
For each of the compounds below, state its MIC50.
Give bare numbers, in µg/mL.

[[record]]
compound = "Fc1ccc([Se]C(Cn2ccnc2)c2ccc(F)cc2F)cc1 (centres undefined)"
endpoint_name = "MIC50"
unit_string = "µg/mL"
readout_number = 8


State the recorded MIC50 for every item in the following list.
1. Clc1ccc(COC(Cn2ccnc2)c2ccc(Cl)cc2Cl)c(Cl)c1 (centres undefined)
2. Fc1cccc([Se]C(Cn2ccnc2)c2ccc(Cl)cc2Cl)c1 (centres undefined)
3. CCc1ccccc1[Se]C(Cn1ccnc1)c1ccc(F)cc1F (centres undefined)

a:
1: 32; 2: 8; 3: 16

----------
Assay: Selectivity ratio of IC50 for human HL-60 cells to MIC for Candida albicans CPCC400616
Format: toxicity
endpoint name: selectivity ratio
Answers are plain numbers.

Lab note: measured selectivity ratio of Fc1ccc([Se]C(Cn2ccnc2)c2ccc(F)cc2F)cc1 (stereo unspecified) was 38

----------
For each of the compounds below, state its hemolysis at 3 h, 4 ug/ml.
Test: Hemolytic activity in rabbit RBC assessed as hemolysis ratio at 4 ug/ml measured after 3 hrs by microplate reader assay relative to control
Type: ADME, cell-based, Oryctolagus cuniculus, Erythrocyte
Conditions: rabbit red blood cells (erythrocytes), at 4 µg/mL, read-out: Activity

# annotated cases, reported hemolysis at 3 h, 4 ug/ml shown
[[record]]
compound = "Cc1ccc(C)c([Se]C(Cn2ccnc2)c2ccc(Cl)cc2Cl)c1 (stereo unspecified)"
endpoint_name = "hemolysis at 3 h, 4 ug/ml"
result = "84.4%"

[[record]]
compound = "Clc1ccc(COC(Cn2ccnc2)c2ccc(Cl)cc2Cl)c(Cl)c1 (stereo unspecified)"
endpoint_name = "hemolysis at 3 h, 4 ug/ml"
result = "81.8%"

[[record]]
compound = "Fc1ccc([Se]C(Cn2ccnc2)c2ccc(F)cc2F)cc1 (stereo unspecified)"
endpoint_name = "hemolysis at 3 h, 4 ug/ml"
result = "0%"


State the recorded hemolysis at 3 h, 4 ug/ml for every item in the following list.
1. CCc1ccccc1[Se]C(Cn1ccnc1)c1ccc(F)cc1F (stereo unspecified)
2. Fc1cccc([Se]C(Cn2ccnc2)c2ccc(Cl)cc2Cl)c1 (stereo unspecified)
3. Clc1ccc(C(Cn2ccnc2)[Se]Cc2ccccc2Cl)c(Cl)c1 (stereo unspecified)

a:
1. 93.6%
2. 87.7%
3. 58.9%

----------
System: Cryptococcus neoformans
Assay: Antifungal activity against Cryptococcus neoformans CMGCC2.3161 measured after 72 hrs by broth microdilution assay
Assay type: functional
For each of the compounds below, state its MIC.
Hey, just the number and the unit after it is fine.

[[record]]
compound = "Clc1ccc(C(Cn2ccnc2)[Se]c2ccccc2)c(Cl)c1 (stereo unspecified)"
endpoint_name = "MIC"
result = "0.13 µg/mL"

[[record]]
compound = "Fc1ccc(C(Cn2cncn2)[Se]Cc2ccccc2Cl)c(F)c1 (stereo unspecified)"
endpoint_name = "MIC"
result = "2 µg/mL"

[[record]]
compound = "Fc1ccc(C[Se]C(Cn2cncn2)c2ccc(Cl)cc2Cl)cc1 (stereo unspecified)"
endpoint_name = "MIC"
result = "8 µg/mL"

[[record]]
compound = "Clc1ccc(COC(Cn2ccnc2)c2ccc(Cl)cc2Cl)c(Cl)c1 (stereo unspecified)"
endpoint_name = "MIC"
result = "0.5 µg/mL"


State the recorded MIC for every item in the following list.
1. Fc1ccc(C[Se]C(Cn2cncn2)c2ccc(F)cc2F)cc1 (stereo unspecified)
2. Clc1ccc(C(Cn2cncn2)[Se]Cc2ccccc2Cl)c(Cl)c1 (stereo unspecified)

a:
["0.5 µg/mL", "2 µg/mL"]

----------
Tested on: Candida albicans
Test: Antifungal activity against fluconazole-resistant Candida albicans 901 assessed as inhibition of microbial growth after 24 hrs by broth microdilution method
Assay type: functional
For each of the compounds below, state its MIC.
Give bare numbers, in µg/mL.

[[record]]
compound = "CCc1ccccc1[Se]C(Cn1ccnc1)c1ccc(Cl)cc1Cl (stereo unspecified)"
endpoint_name = "MIC"
unit_string = "µg/mL"
readout_number = 4


State the recorded MIC for every item in the following list.
1. COc1ccc(C[Se]C(Cn2cncn2)c2ccc(Cl)cc2Cl)cc1 (stereo unspecified)
2. Fc1ccc(C(Cn2cncn2)[Se]Cc2ccccc2Cl)c(F)c1 (stereo unspecified)
3. COc1ccccc1[Se]C(Cn1ccnc1)c1ccc(Cl)cc1Cl (stereo unspecified)

a:
128
4
1

----------
System: Cryptococcus neoformans
Test: Antifungal activity against Cryptococcus neoformans CMGCC2.3161 measured after 72 hrs by broth microdilution assay
Type: functional
For each of the molecules below, state its MIC.
Numbers only, in µg/mL.

# annotated cases, reported MIC shown
[[record]]
molecule = "COc1cccc([Se]C(Cn2ccnc2)c2ccc(F)cc2F)c1 (stereo unspecified)"
endpoint_name = "MIC"
readout_number = 0.5

[[record]]
molecule = "Fc1cccc([Se]C(Cn2ccnc2)c2ccc(Cl)cc2Cl)c1 (stereo unspecified)"
endpoint_name = "MIC"
readout_number = 0.13

[[record]]
molecule = "Cc1ccc([Se]C(Cn2ccnc2)c2ccc(F)cc2F)cc1 (stereo unspecified)"
endpoint_name = "MIC"
readout_number = 0.13

[[record]]
molecule = "Clc1ccc(C[Se]C(Cn2cncn2)c2ccc(Cl)cc2Cl)c(Cl)c1 (stereo unspecified)"
endpoint_name = "MIC"
readout_number = 64

[[record]]
molecule = "Fc1ccc(C(Cn2cncn2)[Se]Cc2ccc(Cl)cc2Cl)c(F)c1 (stereo unspecified)"
endpoint_name = "MIC"
readout_number = 4


Turning now to a further molecule:
Lab note: measured MIC of Cc1cc(C)cc([Se]C(Cn2ccnc2)c2ccc(Cl)cc2Cl)c1 (stereo unspecified) was 0.5

----------
For each of the molecules below, state its hemolysis at 3 h, 2 ug/ml.
Experiment: Hemolytic activity in rabbit RBC assessed as hemolysis ratio at 2 ug/ml measured after 3 hrs by microplate reader assay relative to control
Format: ADME, cell-based, Oryctolagus cuniculus, Erythrocyte
Conditions: rabbit red blood cells (erythrocytes), at 2 µg/mL, read-out: Activity

# annotated cases, reported hemolysis at 3 h, 2 ug/ml shown
[[record]]
molecule = "CCc1ccccc1[Se]C(Cn1ccnc1)c1ccc(F)cc1F (stereo unspecified)"
endpoint_name = "hemolysis at 3 h, 2 ug/ml"
result = "0%"

[[record]]
molecule = "Fc1cccc([Se]C(Cn2ccnc2)c2ccc(Cl)cc2Cl)c1 (stereo unspecified)"
endpoint_name = "hemolysis at 3 h, 2 ug/ml"
result = "0%"

[[record]]
molecule = "Clc1ccc(C(Cn2ccnc2)[Se]Cc2ccccc2Cl)c(Cl)c1 (stereo unspecified)"
endpoint_name = "hemolysis at 3 h, 2 ug/ml"
result = "3.15%"

[[record]]
molecule = "Cc1ccc(C)c([Se]C(Cn2ccnc2)c2ccc(Cl)cc2Cl)c1 (stereo unspecified)"
endpoint_name = "hemolysis at 3 h, 2 ug/ml"
result = "0.89%"


State the recorded hemolysis at 3 h, 2 ug/ml for every item in the following list.
1. Clc1ccc(COC(Cn2ccnc2)c2ccc(Cl)cc2Cl)c(Cl)c1 (stereo unspecified) [MICONAZOLE]
2. Fc1ccc([Se]C(Cn2ccnc2)c2ccc(F)cc2F)cc1 (stereo unspecified)

a:
1. 8.55%
2. 0%
